# reported IC50; entries follow
Target: human C5aR(CD88) (Homo sapiens)
Construct: expressed in transfected cells; host or cells: rat basophilic leukemia cells (RBL)
Sequence (P21730 1-350): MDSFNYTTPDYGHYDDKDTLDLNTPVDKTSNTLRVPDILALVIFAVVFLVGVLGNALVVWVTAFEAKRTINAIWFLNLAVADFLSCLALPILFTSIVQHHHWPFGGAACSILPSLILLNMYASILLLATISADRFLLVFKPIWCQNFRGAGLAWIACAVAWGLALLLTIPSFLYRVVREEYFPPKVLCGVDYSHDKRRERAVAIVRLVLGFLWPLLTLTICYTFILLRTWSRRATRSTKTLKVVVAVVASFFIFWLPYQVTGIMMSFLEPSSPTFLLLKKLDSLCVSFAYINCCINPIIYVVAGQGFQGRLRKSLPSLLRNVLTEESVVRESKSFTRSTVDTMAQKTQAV
Experiment: Determination of the IC50 value in an enzyme release assay (functional assay, antagonistic activity)
Format: cell-based
Details: antagonistic activity; IC50 group in enzyme release assay, RBL cells expressing human C5aR(CD88); read-out: activity (group)
Starred links: 1 amine or outer side, 2 acyl side, 3 side chain; linkers in the order of their positions; H or OH if unused. Positions of bridges follow the written chain, without caps; N, C: chain ends. Non-standard residues stand in square brackets, D forms with d. Residues, ends and D or L forms follow the SMILES beside them. *: point of attachment. Orn(2-imidazolinyl) = N[C@@H](CCCNC1=NCCN1)C(=O)O; Phe(3,4-Cl2) = N[C@@H](Cc1ccc(Cl)c(Cl)c1)C(=O)O; Phe(4-F) = N[C@@H](Cc1ccc(F)cc1)C(=O)O; dPhe(2-Me) = Cc1ccccc1C[C@@H](N)C(=O)O; Phe(2-F) = N[C@@H](Cc1ccccc1F)C(=O)O; Bta = N[C@@H](Cc1csc2ccccc12)C(=O)O; d(hLeu) = CC(C)CC[C@@H](N)C(=O)O; NMeN = CN[C@@H](CC(N)=O)C(=O)O; dCha = N[C@H](CC1CCCCC1)C(=O)O; AllylGly = C=CC[C@H](N)C(=O)O; Methoxyoxalyl = COC(=O)C(=O)*; Chg = N[C@H](C(=O)O)C1CCCCC1; hLeu = CC(C)CC[C@H](N)C(=O)O; NMeS = CN[C@@H](CO)C(=O)O; Morpholide = C1CN(*)CCO1; Nle = CCCC[C@H](N)C(=O)O; Orn = NCCC[C@H](N)C(=O)O; CO = O=C([*:1])[*:2]

>  <COMPOUND>
CCCC[C@@H]1NC(=O)[C@H](Cc2c[nH]c3ccccc23)NC(=O)[C@@H](CC2CCCCC2)NC(=O)[C@@H]2CCCN2C(=O)[C@@H](NC(=O)[C@H](Cc2ccccc2)NC(=O)N2CCOCC2)CCCNC1=O [Compound 330, Fbo-Phe-[Orn-Pro-cha-Trp-Nle]] ({Morpholide-CO}-F[Orn]P[dCha]W[Nle]; lactam 2-C)

>  <IC50>
50 to 200 nM

$$$$
>  <COMPOUND>
CCCC[C@@H]1NC(=O)[C@H](Cc2c[nH]c3ccccc23)NC(=O)[C@@H](CC2CCCCC2)NC(=O)[C@H](CC(N)=O)N(C)C(=O)[C@@H](NC(=O)[C@H](Cc2ccccc2)NC(C)=O)CCCNC1=O [Compound 184, Ac-Phe-[Orn-NMD-cha-Trp-Nle]] (Ac-F[Orn][NMeN][dCha]W[Nle]; lactam 2-C)

>  <IC50>
50 to 200 nM

$$$$
>  <COMPOUND>
CC(=O)N[C@@H](Cc1ccccc1)C(=O)N[C@@H](CCCN)C(=O)N1CCC[C@H]1C(=O)N[C@H](CCC(C)C)C(=O)N[C@@H](Cc1ccccc1F)C(=O)N[C@@H](Cc1ccccc1)C(N)=O [Compound 295, Ac-Phe-Orn-Pro-hle-Off-Phe-NH2] (Ac-F[Orn]P[d(hLeu)][Phe(2-F)]F-NH2)

>  <IC50>
50 to 200 nM

$$$$
>  <COMPOUND>
CC(=O)N[C@@H](Cc1ccccc1)C(=O)N[C@@H](CCCN)C(=O)N1CCC[C@H]1C(=O)N[C@H](Cc1ccccc1C)C(=O)N[C@@H](Cc1csc2ccccc12)C(=O)N[C@@H](Cc1ccccc1)C(N)=O [Compound 308, Ac-Phe-Orn-Pro-omf-Bta-Phe-NH2] (Ac-F[Orn]P[dPhe(2-Me)][Bta]F-NH2)

>  <IC50>
50 to 200 nM

$$$$
>  <COMPOUND>
C=CC[C@@H]1NC(=O)[C@H](Cc2c[nH]c3ccccc23)NC(=O)[C@@H](CC2CCCCC2)NC(=O)[C@@H]2CCCN2C(=O)[C@@H](NC(=O)[C@H](Cc2ccccc2)NC(C)=O)CCCNC1=O [Compound 33, Ac-Phe-[Orn-Pro-cha-Trp-Eaf]] (Ac-F[Orn]P[dCha]W[AllylGly]; lactam 2-C)

>  <IC50>
5 to 10 nM

$$$$
>  <COMPOUND>
CC(=O)N[C@@H](Cc1ccccc1)C(=O)N[C@@H](CCCNC1=NCCN1)C(=O)N1CCC[C@H]1C(=O)N[C@H](CCC(C)C)C(=O)N[C@@H](Cc1csc2ccccc12)C(=O)N[C@@H](Cc1ccccc1)C(N)=O [Compound 226, Ac-Phe-Ffa-Pro-hle-Bta-Phe-NH2] (Ac-F[Orn(2-imidazolinyl)]P[d(hLeu)][Bta]F-NH2)

>  <IC50>
10 to 20 nM

$$$$
>  <COMPOUND>
CC(=O)N[C@@H](Cc1ccccc1)C(=O)N[C@H]1CCCNC(=O)[C@H](C2CCCCC2)NC(=O)[C@H](Cc2c[nH]c3ccccc23)NC(=O)[C@@H](CC2CCCCC2)NC(=O)[C@@H]2CCCN2C1=O [Compound 190, Ac-Phe-[Orn-Pro-cha-Trp-Chg]] (Ac-F[Orn]P[dCha]W[Chg]; lactam 2-C)

>  <IC50>
50 to 200 nM

$$$$
>  <COMPOUND>
CC(=O)N[C@@H](Cc1ccccc1)C(=O)N[C@H]1CCCNC(=O)[C@H](CCCCN)NC(=O)[C@H](Cc2c[nH]c3ccccc23)NC(=O)[C@@H](CC2CCCCC2)NC(=O)[C@@H]2CCCN2C1=O [Compound 22] (Ac-F[Orn]P[dCha]WK; lactam 2-C (inferred))

>  <IC50>
> 2000 nM

$$$$
>  <COMPOUND>
CC(=O)N[C@@H](Cc1ccccc1)C(=O)N[C@H]1CCCNC(=O)[C@H](Cc2ccccc2)NC(=O)[C@H](Cc2ccc(F)cc2)NC(=O)[C@@H](CCC(C)C)NC(=O)[C@@H]2CCCN2C1=O [Compound 198, Ac-Phe-[Orn-Pro-hle-Pff-Phe]] (Ac-F[Orn]P[d(hLeu)][Phe(4-F)]F; lactam 2-C)

>  <IC50>
50 to 200 nM

$$$$
>  <COMPOUND>
CC(=O)N[C@@H](Cc1ccccc1)C(=O)N[C@H]1CCCNC(=O)[C@H](CCC(C)C)NC(=O)[C@H](Cc2c[nH]c3ccccc23)NC(=O)[C@@H](CC2CCCCC2)NC(=O)[C@@H]2CCCN2C1=O [Compound 32, Ac-Phe-[Orn-Pro-cha-Trp-Hle]] (Ac-F[Orn]P[dCha]W[hLeu]; lactam 2-C)

>  <IC50>
20 to 50 nM

$$$$
>  <COMPOUND>
CCCC[C@@H]1NC(=O)[C@H](Cc2ccc(Cl)c(Cl)c2)NC(=O)[C@@H](CCC(C)C)NC(=O)[C@H](CO)NC(=O)[C@@H](NC(=O)[C@@H](N)Cc2ccccc2)CCCNC1=O [Compound 384, H-Phe-[Orn-Ser-hle-Eaa-Nle]] (H-F[Orn]S[d(hLeu)][Phe(3,4-Cl2)][Nle]; lactam 2-C)

>  <IC50>
50 to 200 nM

$$$$
>  <COMPOUND>
CC(C)CC[C@H]1NC(=O)[C@H](CO)N(C)C(=O)[C@@H](NC(=O)[C@@H](N)Cc2ccccc2)CCCNC(=O)[C@H](Cc2ccccc2)NC(=O)[C@H](Cc2ccc(F)cc2)NC1=O [Compound 373, H-Phe-[Orn-NMS-hle-Pff-Phe]] (H-F[Orn][NMeS][d(hLeu)][Phe(4-F)]F; lactam 2-C)

>  <IC50>
50 to 200 nM

$$$$
>  <COMPOUND>
COC(=O)C(=O)N[C@@H](Cc1ccccc1)C(=O)N[C@@H](CCCN)C(=O)N1CCC[C@H]1C(=O)N[C@H](CC1CCCCC1)C(=O)N[C@@H](Cc1csc2ccccc12)C(=O)N[C@@H](Cc1ccccc1)C(N)=O [Compound 340, Fid-Phe-Orn-Pro-cha-Bta-Phe-NH2] (Methoxyoxalyl-F[Orn]P[dCha][Bta]F-NH2)

>  <IC50>
50 to 200 nM

$$$$
